Assay: AUC (0 to infinity) in CD-1 mouse at 3 mg/kg, po measured after 24 hrs by LC-MS/MS analysis
Type: ADME, organism-based
Parameters: time 24 hrs, dose 3 mg/kg, route po
Conditions: in vivo
MEASURED METRIC: AUC(0-inf) (ng·h/mL)
Numeric only. Scale: ng·h/mL

Task: What value of AUC(0-inf) has been recorded for this entry: C=CC(=O)N1CCCC(n2nc3c(=O)[nH]nc(N)c3c2-c2oc3ccc(C)cc3c2C)C1 (stereo unspecified)
Result: 75.4

====

Assay: GSH reactivity in PBS buffer assessed as percentage peak area ratio incubated for 24 hrs by LC-MS/MS analysis
Assay type: physicochemical
MEASURED METRIC: Activity

C=CC(=O)N1CCCC(n2nc3c(=O)[nH]nc(N)c3c2-c2oc3ccc(C)cc3c2C)C1 (centres undefined) :: 65%

Task: What value of Activity has been recorded for this entry: CC#CC(=O)N1CCC(n2nc3c(=O)[nH]nc(N)c3c2-c2oc3ccc(C)cc3c2C)CC1
Result: 87%

Task: What value of Activity has been recorded for this entry: C=CC(=O)N1CCC(n2nc3c(=O)[nH]nc(N)c3c2-c2oc3ccc(C)cc3c2C)CC1
Result: 84%

Task: What value of Activity has been recorded for this entry: C#CC(=O)N1CCC(n2nc3c(=O)[nH]nc(N)c3c2-c2oc3ccc(C)cc3c2C)CC1
Result: 0%
